- TARGET_OR_TEST_SYSTEM: T1, TNFR1 (Homo sapiens, UniProt P19438)
- T1 chain: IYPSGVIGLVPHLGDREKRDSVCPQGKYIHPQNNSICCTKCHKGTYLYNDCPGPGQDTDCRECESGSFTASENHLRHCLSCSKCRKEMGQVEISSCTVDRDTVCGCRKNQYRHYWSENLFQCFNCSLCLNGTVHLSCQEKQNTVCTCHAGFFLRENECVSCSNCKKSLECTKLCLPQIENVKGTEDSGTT
- ASSAY_DETAILS: yeast display SC50
OUTCOME_MEASURE: apparent Kd (screen) (pM)

Past entries and their recorded results:
A23E (designed binder) MTLQELLREEALRRAEAEAFRYELELLAEKFPEQKEYLLDLAEEIESQIRSLSGVDVEDVRKFLDKEWAWVKELLAEHPAELAEVEAARAARLAELRAEVEAKVAA    490
S53Q (designed binder) MTLQELLREEALRRAEAEAFRYALELLAEKFPEQKEYLLDLAEEIESQIRSLQGVDVEDVRKFLDKEWAWVKELLAEHPAELAEVEAARAARLAELRAEVEAKVAA    653
K30Y (designed binder) MTLQELLREEALRRAEAEAFRYALELLAEYFPEQKEYLLDLAEEIESQIRSLSGVDVEDVRKFLDKEWAWVKELLAEHPAELAEVEAARAARLAELRAEVEAKVAA    539

A: D59C (designed binder) MTLQELLREEALRRAEAEAFRYALELLAEKFPEQKEYLLDLAEEIESQIRSLSGVDVECVRKFLDKEWAWVKELLAEHPAELAEVEAARAARLAELRAEVEAKVAA
B: A88H (designed binder) MTLQELLREEALRRAEAEAFRYALELLAEKFPEQKEYLLDLAEEIESQIRSLSGVDVEDVRKFLDKEWAWVKELLAEHPAELAEVEAHRAARLAELRAEVEAKVAA
C: K62E (designed binder) MTLQELLREEALRRAEAEAFRYALELLAEKFPEQKEYLLDLAEEIESQIRSLSGVDVEDVREFLDKEWAWVKELLAEHPAELAEVEAARAARLAELRAEVEAKVAA
[Q] Sort (3 binders) by apparent Kd (screen): min first. The labels, placed in the requested order, form the answer.
[A] B, C, A
(B: 490 pM, C: 790 pM, A: 13800 pM)

A: K30N (designed binder) MTLQELLREEALRRAEAEAFRYALELLAENFPEQKEYLLDLAEEIESQIRSLSGVDVEDVRKFLDKEWAWVKELLAEHPAELAEVEAARAARLAELRAEVEAKVAA
B: F31I (designed binder) MTLQELLREEALRRAEAEAFRYALELLAEKIPEQKEYLLDLAEEIESQIRSLSGVDVEDVRKFLDKEWAWVKELLAEHPAELAEVEAARAARLAELRAEVEAKVAA
[Q] // which entry reports the smaller apparent Kd (screen), A or B ? Answer by stating the label of the chosen item.
[A] A
(A: 539 pM, B: 956 pM)
